assay_target: T1, human CTLA-4 (human, UniProt P16410 36-223)
T1 construct: also called huCTLA4
T1 sequence (P16410 36-223): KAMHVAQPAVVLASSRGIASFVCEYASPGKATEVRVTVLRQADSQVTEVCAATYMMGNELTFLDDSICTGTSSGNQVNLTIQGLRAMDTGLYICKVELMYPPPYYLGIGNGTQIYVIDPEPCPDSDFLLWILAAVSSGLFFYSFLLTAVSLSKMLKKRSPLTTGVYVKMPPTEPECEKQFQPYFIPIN
experimental_protocol: flow cytometry on CHO cells stably expressing CTLA4
A collection of binders and their measured MFI at 33.3 nM
Number only, in MFI; omit the unit.

CD80 E35D/M47V/N48K/V68M/K89N IgV-Fc, (EAAAK)3 linker (Fc fusion, not shown: a dimerising Fc or GST) VIHVTKEVKEVATLSCGHNVSVEELAQTRIYWQKDKKMVLTMMSGDVKIWPEYKNRTIFDITNNLSIMILALRPSDEGTYECVVLKYENDAFKREHLAEVTLSVKADEAAAKEAAAKEAAAK
27100

Switching to the query record.
q: Need MFI at 33.3 nM, item CD80 E35D/M47V/N48K/V68M/K89N IgV-Fc, delta linker (Fc fusion, Fused directly to the Fc with no additional linker; also called E35D/M47V/N48K/V68M/K89N delta) VIHVTKEVKEVATLSCGHNVSVEELAQTRIYWQKDKKMVLTMMSGDVKIWPEYKNRTIFDITNNLSIMILALRPSDEGTYECVVLKYENDAFKREHLAEVTLSVKTHTCPPCPAPEAEGAPSVFLFPPKPKDTLMISRTPEVTCVVVDVSHEDPEVKFNWYVDGVEVHNAKTKPREEQYNSTYRVVSVLTVLHQDWLNGKEYKCKVSNKALPAPIEKTISKAKGQPREPQVYTLPPSREEMTKNQVSLTCLVKGFYPSDIAVEWESNGQPENNYKTTPPVLDSDGSFFLYSKLTVDKSRWQQGNVFSCSVMHEALHNHYTQKSLSLSPG
a: 3090
